assay: Cmax in CD-1 mouse at 60 mg/kg, po administered as repeated dose measured at day 1 by LC-MS/MS analysis; format: ADME, organism-based; parameters: route oral, time 1 day, dose 60 mg/kg; settings: in vivo
quantity.kind: Cmax (ng/mL)
// note: answer is a bare numeric in ng/mL

QUERY: Which measured Cmax value corresponds to `Cc1cc(F)ccc1-c1cc2c(cn1)ncn2-c1ccc(OC(F)F)cc1` ?
RESULT: 2210

---

experiment: Observed clearance in CD-1 mouse at 3 mg/kg, po administered as single dose measured over 24 hrs by LC-MS/MS analysis; format: ADME, organism-based; details: in vivo
quantity.kind: CL/F (mL/min/kg)
Provide only the numeric value, understood in mL/min/kg.

QUERY: Reported CL/F, molecule `Cc1cc(F)ccc1-c1cc2c(cn1)ncn2-c1ccc(OC(F)F)cc1` : ____
RESULT: 129
